Test system: PC9 cells (EGFR Exon 19 del, non-small cell lung cancer cells)
Test: Cell viability assay (WST/CCK8), PC9 cells
Type: cell-based
Condition context: Homo sapiens, PC-9; PC9 (Exon19 Del), 72 hours, WST (CCK8); read-out: IC50 (half inhibitory concentration)
Text: The cell lines with abnormal EGFR expression used are as follows: • HCC827 cells (EGFR Exon19 del, non-small cell lung cancer cells); • PC9 cells (EGFR Exon 19 del, non-small cell lung cancer cells); • PC9BracA1 (EGFR Exon 19 del+T790M, non-small cell lung cancer cells) • H1975 (EGFR Exon T790M+L858R mutation, non-small cell lung cancer cell line) • BT474 cells (HER2 positive breast cancer cells) […]
Value kind: IC50 (nM)
Give just the number in nM; leave the unit off.

Past entries and their recorded results:
Molecule	IC50 (nM)
COc1cc2ncnc(Nc3ccc(F)c(Cl)c3)c2cc1NC(=O)/C=C/CN1CCN(C(=O)CCCCCSc2cccc3c2C(=O)N(C2CCC(=O)NC2=O)C3=O)CC1 (stereo not drawn)	22.9
COc1cc2ncnc(Nc3ccc(F)c(Cl)c3)c2cc1NC(=O)/C=C/CN1CCN(C(=O)COCCOCCOCCSc2cccc3c2C(=O)N(C2CCC(=O)NC2=O)C3=O)CC1 (stereo not drawn)	73
COc1cc2ncnc(Nc3ccc(F)c(Cl)c3)c2cc1NC(=O)/C=C/CN1CCC(NC(=O)CCCCCSc2cccc3c2CN(C2CCC(=O)NC2=O)C3=O)CC1 (stereo not drawn)	11.9
COc1cc2ncnc(Nc3ccc(F)c(Cl)c3)c2cc1NC(=O)/C=C/CN1CCN(C(=O)CCCSc2cccc3c2CN(C2CCC(=O)NC2=O)C3=O)CC1 (stereo not drawn)	33.3
COc1cc2ncnc(Nc3ccc(F)c(Cl)c3)c2cc1NC(=O)/C=C/CN1CCC(N)CC1	0.8
COc1cc2ncnc(Nc3ccc(F)c(Cl)c3)c2cc1NC(=O)/C=C/CN1CCN(C(=O)CCCCCCSc2cccc3c2C(=O)N(C2CCC(=O)NC2=O)C3=O)CC1 (stereo not drawn)	18.7
COc1cc2ncnc(Nc3ccc(F)c(Cl)c3)c2cc1NC(=O)/C=C/CN1CCN(C(=O)CCNc2cccc3c2C(=O)N(C2CCC(=O)NC2=O)C3=O)CC1 (stereo not drawn)	112
COc1cc2ncnc(Nc3ccc(F)c(Cl)c3)c2cc1NC(=O)/C=C/CN1CCC(NC(=O)CCNc2cccc3c2C(=O)N(C2CCC(=O)NC2=O)C3=O)CC1 (stereo not drawn)	6.1

// Input: COc1cc2ncnc(Nc3ccc(F)c(Cl)c3)c2cc1NC(=O)/C=C/CN1CCC(N2CCN(C(=O)CCCCCNc3cccc4c3CN(C3CCC(=O)NC3=O)C4=O)CC2)CC1 (stereo not drawn) . Output its IC50 only.
6.3

Answer with reported IC50 of COc1cc2ncnc(Nc3ccc(F)c(Cl)c3)c2cc1NC(=O)/C=C/CN1CCC(N2CCN(CCCCCCOc3cccc4c3CN(C3CCC(=O)NC3=O)C4=O)CC2)CC1 (stereo not drawn)
28.4

Using known records, supply IC50 for COc1cc2ncnc(Nc3ccc(F)c(Cl)c3)c2cc1NC(=O)/C=C/CN1CCNCC1
9.7

Please indicate IC50 recorded for COc1cc2ncnc(Nc3ccc(F)c(Cl)c3)c2cc1NC(=O)/C=C/CN1CCC(NCCCCC#Cc2cccc3c2CN(C2CCC(=O)NC2=O)C3=O)CC1 (stereo not drawn)
31.2
